Species on record: Rattus norvegicus
Experiment: Selectivity index, ratio of IC50 for rat brain mitochondria MAOA to IC50 for rat brain mitochondria MAOB
metric name: Selectivity index
Respond with the number and no other words.

Inquiry: Item under review: NC(=O)[C@H](CO)NCc1ccc(OCc2cccc(F)c2)cc1 . Reported Selectivity index?
Reply text: 714

Inquiry: Item under review: C[C@H](NCc1ccc(OCc2cccc(Cl)c2)cc1)C(N)=O . Reported Selectivity index?
Reply text: 3460

Inquiry: Item under review: NC(=O)[C@@H](CO)NCc1ccc(OCc2cccc(Cl)c2)cc1 . Reported Selectivity index?
Reply text: 909

---

Species on record: Rattus norvegicus
Test: Selectivity index, ratio of IC50 for rat brain mitochondria MAOA to IC50 for rat brain mitochondria MAOB
metric name: Selectivity index
Respond with the number and no other words.

The cases that follow already have their Selectivity index on record.
NC(=O)[C@@H](NCc1ccc(OCc2cccc(F)c2)cc1)c1ccccc1 ... 3.4
NC(=O)CNCc1ccc(OCc2ccc([N+](=O)[O-])cc2)cc1 ... 2.3

Inquiry: Item under review: NC(=O)CNCc1ccc(OCc2cccc(F)c2)cc1 . Reported Selectivity index?
Reply text: 6.1

Inquiry: Item under review: C[C@H](C(N)=O)N1CCc2cc(OCc3cccc(F)c3)ccc2C1 . Reported Selectivity index?
Reply text: 2940

Inquiry: Item under review: NC(=O)CNCc1ccc(OCc2ccccc2)cc1 . Reported Selectivity index?
Reply text: 2.7

Inquiry: Item under review: C[C@@H](NCc1ccc(OCc2cccc(Cl)c2)cc1)C(N)=O . Reported Selectivity index?
Reply text: 90
